- Assay target: NBS1 N-terminal FHA-BRCT region (sample of the ITC) (human)
- Protocol notes: ITC
Non-standard residues stand in square brackets, D forms with d. No end group written: not given here. pT = C[C@@H](OP(=O)(O)O)[C@H](N)C(=O)O; pS = N[C@@H](COP(=O)(O)O)C(=O)O
Measured quantity: Kd (nM)
Value expressed in nM; do not type the unit.

Task: Recorded Kd of SSS[pS]DE[pT]DVE [Treacle SDET phosphopeptide (SSSpSDEpTDVE)] , please.
Result: 1000
